Entries annotated with measured ELISA absorbance 405 nm
Target: T1, recombinant human EGFRvIII protein (extracellular domain), native (human, UniProt P00533 298-623)
T1 construct: also called hEGFRvIII
Experiment: ELISA Exp 1, mAb supernatant
Answer in A405, number only, no unit symbol.

# Binder, Readout Number
records = [
    ("F266-11B1 (antibody, V domains shown, Mouse hybridoma mAb) VH: QIQLVQSGPELKKPGETVKISCKASGYTFTTAGMQWVKKMPGKGFKWIGWINTHSGDPKYAEDFKGRFAFSLETYASTAYLQISNLKNEDTASYFCARTHIYDGYNYAMDYWGQGTSVTVSS VL: DVVMTQTPLSLPVSLGDQASISCRSSQSLVYSNGNTYLHWYLQKPGQSPKLLIYKVSNRFSGVPDRFSGSGSGTDFTLKISRVEAEDLGVYFCSQSTHVPFTFGSGTKLEIK", 1.67),
    ("F263-4E11 (antibody, V domains shown, Mouse hybridoma mAb) VH: DVQLQESGPGLVKPSQSLSLTCTVTGYSITSDYAWNWIRQFPGNKLEWMGYIGYNGRTSYNPSLKSRISITRDTSKNQFFLQLNYVTTEDTATFYCARLGRGFAYWGQGTLVTVSA VL: DILMTQSPSSMSVSLGDTVSITCHASQGINSNIGWLLQKPGKSFKGLIYHGTNLEDGVPSRFSGSGSGTDYSLTISSLESEDFADYYCVQYAQFPYTFGGGTKLEIK", 1.36),
    ("F266-11C8 (antibody, V domains shown, Mouse hybridoma mAb; also called 11H5 (11C8)) VH: QIQLVQSGPELKKPGETVKISCKASGYTFTTAGMQWVQKMPGKGFKWIGWINTHSGDPKYAEDFKGRFAFSLETYASTAYLQISNLKNEDTASYFCARTHIYDGYNYAMDYWGQGTSVTVSS VL: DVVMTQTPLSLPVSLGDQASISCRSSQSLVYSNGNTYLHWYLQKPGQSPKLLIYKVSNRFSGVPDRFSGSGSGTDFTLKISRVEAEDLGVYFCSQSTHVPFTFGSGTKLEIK", 1.56),
    ("F263-5D8 (antibody, V domains shown, Mouse hybridoma mAb) VH: EVQLQQSGPDLVKPGSSVKISCKASGYTFTDYNIDWVKQSHGKSLEWIGTINPNYGGTSYNQKFKGKATLTVDKSSSTAYMELRSLTSEDSAVYYCARGYDYDLWFAYWGQGTLVTVSA VL: EIVLTQSPVFMAASPGEKVTITCSVSSSISSSNLHWYQQKSETSPKPWIYGTSNLASGVPVRFSGSGSGTSYSLTISSMEAEDAATYYCQQWSSYPLTFGAGTKLELK", 1.43),
]

Now for a further binder.
The reported value for F265-9C9 (antibody, V domains shown, Mouse hybridoma mAb) VH: QVQLQQPGAELVKPGASVKLSCKASGYTFTSYWMHWVKQRPGQDLEWIGEIDPSDSYTNYNQKFKGKATLTVDKSSSTAYIQLSSLTSEDSALYYCARFDFAYWGQGTLVTVSA VL: EIVLTQSPTLMAASPGEKVTITCSVSSSISSSNLHWYQQKSETSPKPWIYDTSNLASGVPIRFSGSGSGTSYSLTISSVEAEDAATYYCQQWSSYPLTFGSGTKLEIK in terms of ELISA absorbance 405 nm is 1.2

# credit: patent US20220193132A1
